Measured values drawn from PubChem BioAssay AID1963449 for this set.

// values below are reported pIC50
Test system: 596521-263-R-J1-PDC complex spheroid growth;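 also: spheroids exposed to compounds for 7 days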
Assay Text: Anticancer human tumor 596521-263-R-J1-PDC patient-derived soft tissue sarcoma cell line growth inhibition [Asc]
Measurement Context: curve of first compound; second compound 1 µM
Scale: negative log10 of molar concentration, which is what pIC50 denotes.

# Molecule, pIC50
data = [
    ("O=C(c1cc(Cc2n[nH]c(=O)c3ccccc23)ccc1F)N1CCN(C(=O)C2CC2)CC1 + CNC(C)C(=O)NC1CN(S(=O)(=O)c2cccc(S(=O)(=O)N3CCC4CCC(C(=O)NC(c5ccccc5)c5ccccc5)N4C(=O)C(NC(=O)C(C)NC)C3)c2)CCC2CCC(C(=O)NC(c3ccccc3)c3ccccc3)N2C1=O", 5.65),
]

From here, focus on the item given below.
For reference, reported pIC50 for O=C(c1cc(Cc2n[nH]c(=O)c3ccccc23)ccc1F)N1CCN(C(=O)C2CC2)CC1 + Cc1c(S(C)(=O)=O)c(-c2cc(F)cc(N3CCN(c4ccc(NS(=O)(=O)c5ccc(NC(CCN6CCC(C(=O)OCCCP(=O)(O)O)CC6)CSc6ccccc6)c(S(=O)(=O)C(F)(F)F)c5)cc4)CC3)c2)c(-c2ccc(Cl)cc2)n1C(C)C stands at 5.27
